The origin of these recorded values is paper PMC1242219.

Biological target: 20S proteasome (Homo sapiens, UniProt P28074)
Construct: Chymotryptic 20S Proteasome Activity in Lysates from ECV 304 Cells; endogenous in cells; host or cells: ECV304 cells, crude extract
Sequence (P28074 60-263): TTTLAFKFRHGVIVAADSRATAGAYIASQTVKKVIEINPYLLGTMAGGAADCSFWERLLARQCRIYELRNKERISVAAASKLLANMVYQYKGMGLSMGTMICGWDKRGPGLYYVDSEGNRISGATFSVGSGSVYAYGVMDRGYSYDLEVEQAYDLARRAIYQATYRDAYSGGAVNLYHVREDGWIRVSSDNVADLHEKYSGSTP
Assay: Chymotrypsin-like 20S proteasome function in crude cell extracts (ATP-free buffer with SDS, SucLLVY-AMC)
Type: biochemical
Details: crude extracts of ECV304 cells

STRUCTURE SMILES	ASSAY SYSTEM	IC50 (µM)
CC(=O)[C@]1(O)Cc2c(O)c3c(c(O)c2[C@@H](O[C@H]2C[C@H](N)[C@H](O)[C@H](C)O2)C1)C(=O)c1ccccc1C3=O	20S proteasome (Homo sapiens, UniProt P28074)	92

###

Biological target: 26S proteasome (Homo sapiens, UniProt P28074)
Construct: endogenous in cells; host or cells: ECV304 cells, crude extract
Test: Chymotrypsin-like 26S proteasome function in crude cell extracts (SucLLVY-AMC fluorogenic peptide assay)
Type: biochemical
pIC50: −log10 of the molar value.
# pIC50 per record follows

COMPOUND	pIC50
COc1cccc2c1C(=O)c1c(O)c3c(c(O)c1C2=O)C[C@@](O)(C(=O)CO)C[C@@H]3O[C@H]1C[C@H](N)[C@@H](O)[C@H](C)O1 [epirubicin]	4.53
COc1cccc2c1C(=O)c1c(O)c3c(c(O)c1C2=O)C[C@@](O)(C(=O)CO)C[C@@H]3O[C@H]1C[C@H](N)[C@H](O)[C@H](C)O1	4.18

###

Target: 26S proteasome (Homo sapiens)
Construct: endogenous in cells; host or cells: ECV304 cells, crude extract
Experiment: Chymotrypsin-like 26S proteasome function in crude cell extracts (SucLLVY-AMC fluorogenic peptide assay)
Format: biochemical
Details: crude extracts of ECV304 cells, 0 – 100 μM drug; read-out: IC50, inhibition of 26S proteasome function
pIC50: −log10 of the molar value.

STRUCTURE SMILES	pIC50
CC(=O)[C@]1(O)Cc2c(O)c3c(c(O)c2[C@@H](O[C@H]2C[C@H](N)[C@H](O)[C@H](C)O2)C1)C(=O)c1ccccc1C3=O	4.41
COc1cccc2c1C(=O)c1c(O)c3c(c(O)c1C2=O)C[C@@](O)(C(C)=O)C[C@@H]3O[C@H]1C[C@H](N)[C@H](O)[C@H](C)O1	4.86

###

Target: 20S proteasome (Homo sapiens)
Construct: Chymotryptic 20S Proteasome Activity in Lysates from ECV 304 Cells; endogenous in cells; host or cells: ECV304 cells, crude extract
Sequence (P28074 60-263): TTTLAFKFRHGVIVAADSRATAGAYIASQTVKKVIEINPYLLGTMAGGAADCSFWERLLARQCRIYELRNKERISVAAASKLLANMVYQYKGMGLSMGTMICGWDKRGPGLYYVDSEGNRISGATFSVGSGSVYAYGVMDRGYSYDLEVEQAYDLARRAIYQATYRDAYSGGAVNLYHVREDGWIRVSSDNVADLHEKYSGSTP
Experiment: Chymotrypsin-like 20S proteasome function in crude cell extracts (ATP-free buffer with SDS, SucLLVY-AMC)
Format: biochemical
Protocol: 20S and 26S proteasome function was measured as described previously (20). Briefly, cells were washed with PBS, then with buffer I (50 mM Tris, pH 7.4, 2 mM DTT, 5 mM MgCl2, 2 mM ATP), and pelleted by centrifugation. […] Protein concentration was determined by the BCA protocol (Pierce). […] Cleavage activity was monitored continuously by detection of free 7-amido-4-methylcoumarin using a fluorescence plate reader (Gemini, Molecular Devices) at 380/460 nm and 37°C. […]

COMPOUND	IC50
COc1cccc2c1C(=O)c1c(O)c3c(c(O)c1C2=O)C[C@@](O)(C(=O)CO)C[C@@H]3O[C@H]1C[C@H](N)[C@H](O)[C@H](C)O1	5.8 µM
COc1cccc2c1C(=O)c1c(O)c3c(c(O)c1C2=O)C[C@@](O)(C(=O)CO)C[C@@H]3O[C@H]1C[C@H](N)[C@@H](O)[C@H](C)O1 [epirubicin]	12.5 µM
